Target: T1, MBP-free H6-CTR ECD (residues 32-140) (human, UniProt P30988-2 32-140)
T1 sequence (looked up): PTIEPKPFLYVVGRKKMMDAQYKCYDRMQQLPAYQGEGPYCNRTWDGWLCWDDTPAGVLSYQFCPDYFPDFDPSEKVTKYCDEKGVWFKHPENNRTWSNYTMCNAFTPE
Test: ITC
Bridge positions count the residues as written; N and C are the ends. Ends that are not written are not given here.
The following binders are listed with their measured pKd values.
Convention used: pKd is expressed as -log10 of the molar concentration.

1) VLGKLSQELHKLQTYPRTNTGSGTP-NH2 [sCT(8-32)]	4.80

Please examine the following record next.
# pKd (binder: CSNLSTCVLGKLSQELHKLQTYPRTNTGSGTP-NH2 (disulfide 1-7) [sCT(1-32)] ) is 4.46
